B1: ZBTB22 (parent)
chain: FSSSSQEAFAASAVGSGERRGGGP

Variants of: B1
protocol_description: protein stability index of a GFP-peptide fusion (GPS, HEK-293T) (PSI 1-6); higher = more stable;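 note: lentivirally expressed fusions sorted by FACS into six bins by GFP to DsRed ratio, PSI derived from sequencing read proportions per bin multiplied by bin number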
conditions_used: c terminus: a fixed tail appended
Would you kindly list protein stability index for each of these variants?
Please reply with the number alone, leaving off any unit.

Quickly give me recorded protein stability index for G23L
2.94

Quickly give me recorded protein stability index for S2R
4.52

Quickly give me recorded protein stability index for P24Y
2.86

Quickly give me recorded protein stability index for S5E
4.15

Quickly give me recorded protein stability index for G21S
3.85

Quickly give me recorded protein stability index for G23C
3.46

Quickly give me recorded protein stability index for A10G
3.75

Quickly give me recorded protein stability index for R19F
3.15

Quickly give me recorded protein stability index for F1C
3.94

Quickly give me recorded protein stability index for G17K
2.63

Quickly give me recorded protein stability index for A8S
4.18
